measured-target: GST tagged LXRbeta LBD (ligand binding domain) (Homo sapiens)
Sequence (P55055 222-460 limits assumed): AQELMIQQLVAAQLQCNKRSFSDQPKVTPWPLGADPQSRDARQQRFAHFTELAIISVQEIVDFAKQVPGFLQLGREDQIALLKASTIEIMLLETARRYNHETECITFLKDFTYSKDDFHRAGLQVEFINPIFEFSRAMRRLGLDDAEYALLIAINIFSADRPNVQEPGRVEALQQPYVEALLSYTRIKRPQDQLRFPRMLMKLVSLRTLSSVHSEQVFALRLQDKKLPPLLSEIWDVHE
test-summary: LanthaScreen TR-FRET Liver X Receptor Coactivator Assay, LXR beta-LBD
measurement-conditions: Inflection Point (potency), co-activator recruitment, relative to reference T0901317; read-out: LXR beta IP
Here, each record is paired with measured EC50 data.
result-type: EC50 (nM)

INSERT INTO results (molecule, measured_target, result_type, reading) VALUES
  ('CCCN(C)C(=O)c1ccc(N2CCC(C3CCN(C(=O)[C@](O)(c4ccccc4)C(F)(F)F)CC3)CC2)cc1Cl', 'GST tagged LXRbeta LBD (ligand binding domain) (Homo sapiens)', 'EC50', 100),
  ('O=C(c1ccc(N2CCC(C3CCN(C(=O)[C@](O)(c4ccccc4)C(F)(F)F)CC3)CC2)cc1Cl)N1CCC(O)C1 (stereo partly drawn)', 'GST tagged LXRbeta LBD (ligand binding domain) (Homo sapiens)', 'EC50', 323),
  ('COc1ccc(C2(C(=O)N3CCC(C4CCN(c5ccc(C(=O)N(C)C)c(Cl)c5)CC4)CC3)CC2)cc1', 'GST tagged LXRbeta LBD (ligand binding domain) (Homo sapiens)', 'EC50', 289);
